# Tested on: SK-MEL-2 melanoma
# run-description: NCI-60 one-dose screen, 48 h (100 = growth as untreated, 0 = no growth, -100 = all killed)
# condition-description: 10 µM unless noted
This is part of a sample that, as a whole, favours compounds with a hit. Of some 83,000 tested, about 20% had one in any assay.
// boundary case: growth equal to 90% maps to n; strictly smaller maps to y

Query :: Lab log: compare recorded growth with 90%; is it strictly lower for CNC(=O)c1c(NC(=O)c2ccc(C(C)C)cc2)sc2c1CCC(=O)C2 ?
Result :: y

Query :: Lab log: compare recorded growth with 90%; is it strictly lower for Nc1ncnc2c1N=C(c1ccc3c(c1)OCO3)CC(c1ccc(Cl)cc1)N2 (stereo unspecified) ?
Result :: y

Query :: Lab log: compare recorded growth with 90%; is it strictly lower for N=c1nc(N2CCCCC2)cc(N)n1O ?
Result :: n

Query :: Lab log: compare recorded growth with 90%; is it strictly lower for COc1cc2c(c(OC)c1O)C(=O)C(OC)C(c1ccc(O)c(O)c1)O2 (stereo unspecified) ?
Result :: y

Query :: Lab log: compare recorded growth with 90%; is it strictly lower for COc1ccc(-c2cnc(-c3ccncc3-c3cccc(OC)c3)o2)cc1 ?
Result :: y

Query :: Lab log: compare recorded growth with 90%; is it strictly lower for Oc1ccc(-c2nnc3c4[nH]ccc4ncn23)cc1 ?
Result :: n

Query :: Lab log: compare recorded growth with 90%; is it strictly lower for CCOC(=O)C1OC2(CCCC2)OC1C(=O)OCC (stereo unspecified) ?
Result :: n

Query :: Lab log: compare recorded growth with 90%; is it strictly lower for S=C(S)Oc1cccc2cccnc12 ?
Result :: n

Query :: Lab log: compare recorded growth with 90%; is it strictly lower for CCCCCCCCCCCCCC1=NC(C)(C)CN1C(C)C ?
Result :: y

Query :: Lab log: compare recorded growth with 90%; is it strictly lower for C=C1C[C@@]2(C)C(CC[C@]3(C)C2CC=C2C4CC(C)(C)C[C@@H](OC(=O)/C(C)=C\C)[C@]4(C(=O)O)CC[C@]23C)C(C)(C)C1=O (stereo partly specified) ?
Result :: y

Query :: Lab log: compare recorded growth with 90%; is it strictly lower for Clc1ccc(-c2cnc3c(-c4ccnc(N5CCNCC5)c4)cnn3c2)cc1 ?
Result :: y

* * *

# Test system: A498 renal
# run-description: NCI-60 one-dose screen, 48 h (100 = growth as untreated, 0 = no growth, -100 = all killed)
# condition-description: 10 µM unless noted
About 83,000 compounds went through this panel and 20% of them were active in at least one assay; those are over-represented in the sample as a whole.
So I've got a bunch of compounds here, and I need their growth values.
Your answer is read as %, so omit the unit and give the number.

Query :: Item under review: COc1ccc2nc(C)cc(Sc3nc4ccccc4s3)c2c1 . Reported growth?
Result :: 40.7

Query :: Item under review: CCN1C(=O)N(CC)C2C1NC(=O)N2/N=C/C=C/c1ccccc1 (stereo not drawn) . Reported growth?
Result :: 25.2

Query :: Item under review: Cc1ccc(OC2=C(C#N)C(=N)N3C(=NN2)Sc2c(C)ccc(C)c23)cc1 . Reported growth?
Result :: 94.9

Query :: Item under review: CCN(CC)c1ccc2c(cc1=O)[C@@H](NC(C)=O)CCc1cc(OC)c(OC)c(OC)c1-2 . Reported growth?
Result :: -15.9

Query :: Item under review: CC(C)[C@@H]1C=C2CC[C@H]3[C@](C)(CN)CCC[C@]3(C)[C@H]2CC1 . Reported growth?
Result :: 66.6

Query :: Item under review: COc1cc(/C=C2\CN(C(=O)OC(C)(C)C)C/C(=C\c3ccc(O)c(OC)c3)C2=O)ccc1O . Reported growth?
Result :: 104

Query :: Item under review: c1ccc(-c2ccc(-c3ccccc3)[nH]2)cc1 . Reported growth?
Result :: 63.7

Query :: Item under review: O=C(c1ccccc1)C1OC1C(=O)c1ccccc1 (stereo not drawn) . Reported growth?
Result :: 95.6

Query :: Item under review: CCCCCCCOc1cccc(/C=C2\N=C3SCCCN3C2=O)c1 . Reported growth?
Result :: 94.6

Query :: Item under review: Cc1cccc(N=NC(=S)NNc2cccc(C)c2)c1 . Reported growth?
Result :: 87.3

Query :: Item under review: Cc1ccccc1Nc1n[nH]c(Cc2ccccc2)n1 . Reported growth?
Result :: 102

Query :: Item under review: ClC1(Cl)C2CCCCCCC21 (stereo not drawn) . Reported growth?
Result :: 79.3

Query :: Item under review: Fc1ccc(-c2cnc3nonc3n2)c(F)c1 . Reported growth?
Result :: 80.9

Query :: Item under review: CCCCCCCCN(CCCCCCCC)C(=O)CCl . Reported growth?
Result :: 99.8

Query :: Item under review: C[Si](C)(C)C(c1ccccc1)c1ccccc1 . Reported growth?
Result :: 99.7

Query :: Item under review: CNC(=O)OC1C(O[C@H]2C[C@H]3[C@@H]4CC=C5C[C@@H](O)CC[C@]5(C)[C@H]4CC[C@]3(C)[C@H]2[C@H](C)C(=O)CCC(C)C)OCC(O)C1OC1OCC(O)C(O)C1OC(=O)c1ccc(OC)cc1 (stereo partly drawn) . Reported growth?
Result :: -60.3

Query :: Item under review: COc1ccc(-c2nn(C(=O)NCCN(C)C)cc2-c2ccncc2)cc1Cl . Reported growth?
Result :: 34.2

Query :: Item under review: COc1ccc2[nH]cc(C3(c4c[nH]c5ccc(OC)cc45)C(=O)Nc4ccc(F)cc43)c2c1 . Reported growth?
Result :: 60.8

Query :: Item under review: Cc1c(C(=O)CCl)c(=O)n(-c2ccccc2)n1C . Reported growth?
Result :: 77.4

Query :: Item under review: CC(=O)Cc1ccccn1 . Reported growth?
Result :: 107

Query :: Item under review: Nc1cc(C(=O)O)cc(C(=O)O)c1 . Reported growth?
Result :: 98

Query :: Item under review: CN1C2CCC1/C(=C\c1ccc(Cl)cc1)C(=O)/C2=C/c1ccc(Cl)cc1 . Reported growth?
Result :: 78.5

Query :: Item under review: COc1ccc(-c2ccc(-c3ccc(C(=N)N)s3)s2)cc1 . Reported growth?
Result :: -73.9

Query :: Item under review: CN(C)CCNC(=O)n1cc(-c2ccncc2)c(-c2cc(O)cc(Cl)c2)n1 . Reported growth?
Result :: 82.2

Query :: Item under review: Clc1ccccc1CNc1c2ccccc2nc2ccccc12 . Reported growth?
Result :: -5.85

Query :: Item under review: COc1cc(CN2CCC(N3CCCC3=O)c3ccccc32)cc(OC)c1OC (stereo not drawn) . Reported growth?
Result :: 63.6

Query :: Item under review: C=CCN(CC#N)CC=C . Reported growth?
Result :: 112

Query :: Item under review: COc1cc(C2CC(c3ccc(Cl)cc3)=NN2C(C)=O)ccc1Oc1ccnc2cc(Cl)ccc12 (stereo not drawn) . Reported growth?
Result :: 69

Query :: Item under review: CCOC(=O)C#Cc1c(C(=O)OCC)nnn1[C@@H]1O[C@H](COC(C)=O)[C@@H](OC(C)=O)[C@H]1OC(C)=O . Reported growth?
Result :: 102

Query :: Item under review: O=C(CSc1nc2c(n1Nc1ccccc1)-c1ccccc1SC2)Nc1nccs1 . Reported growth?
Result :: 77

Query :: Item under review: C=C1C[C@@]2(C)C(CC[C@]3(C)C2CC=C2C4CC(C)(C)C[C@@H](OC(=O)/C(C)=C\C)[C@]4(C(=O)O)CC[C@]23C)C(C)(C)C1=O (stereo partly drawn) . Reported growth?
Result :: -17.4

Query :: Item under review: COC(=O)[C@@H](Cc1c[nH]c2ccccc12)NC(=O)/C=C/c1ccccc1 . Reported growth?
Result :: -9.95

Query :: Item under review: c1cc2c(cc1-c1cnc3nonc3n1)OCO2 . Reported growth?
Result :: 86.9

Query :: Item under review: COC(=O)c1ccc2c(c1)nc(-c1ccc(Cl)cc1)n2-c1cc(C(C)(C)C)[nH]n1 . Reported growth?
Result :: 21.8

Query :: Item under review: Cc1nc(N)nc2c1CCC(Nc1ccccc1)S2 (stereo not drawn) . Reported growth?
Result :: 97

Query :: Item under review: CCSc1cnnc2ccccc12 . Reported growth?
Result :: 89.3

Query :: Item under review: Clc1nnc2c3ccccc3ccn12 . Reported growth?
Result :: 106

Query :: Item under review: CC(C)[C@@]12C[C@@H](OC(=O)[C@H]3CO3)[C@@](C)(O1)[C@@H]1CC[C@@H](C)[C@H]1[C@@H]2OC(=O)/C=C/c1ccccc1 . Reported growth?
Result :: -61.1

Query :: Item under review: COc1ccc(-c2cc(-c3cn(-c4cccc(Cl)c4)nc3-c3ccc(OC)cc3)[nH]c(=S)n2)cc1 . Reported growth?
Result :: 69.3

Query :: Item under review: COc1cc2c(=O)n(CCCN(C)C)c3c4cc[nH]c4ncc3c2cc1OC . Reported growth?
Result :: 18.8

Query :: Item under review: Cc1cc(N)cc(C)c1-c1c(Br)cc(N)cc1Br . Reported growth?
Result :: 27.9

Query :: Item under review: ClC1=NC(Cl)C(Cl)=N/C1=N\c1ncn[nH]1 (stereo not drawn) . Reported growth?
Result :: 121

Query :: Item under review: CCCCCCCCCCCC1=NC(C)(C)CN1CC(C)O (stereo not drawn) . Reported growth?
Result :: 99.8
